Measured values drawn from PubChem BioAssay for this set.

Assay Explanation: SK-BR-3 cell growth inhibitors, pilot screen, 24 h, human (AID 572);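 note: compound exposure lasted between 18 and 24 h rather than exactly 24 h; 100% = carrier-treated control wells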
Run Parameters: SK-BR-3 viability, CellTiter-Glo luminescence, at 10 µM, stronger effect = lower value
Observable: viability (%)
Dear colleague, please return just the value in %, with no unit written.

[ask] Kindly indicate its recorded viability. Item: COc1cc(S(=O)(=O)N2CCC(N3CCCCC3)CC2)ccc1-n1cnnn1
[reply] 92.5

[ask] Assign viability to the following record: CCn1c(C)cc(=S)c2ccccc21
[reply] 114

[ask] Please give the documented viability of Fc1ccc(-n2c(Cc3ccccc3)nnc2SCc2nc(-c3cccs3)no2)cc1
[reply] 99.5

[ask] Supply viability value. Item: Cc1ccc(-n2nnnc2SCC(=O)Nc2c(C)n(C)n(-c3ccccc3)c2=O)cc1
[reply] 102

[ask] Report viability, nothing else, for this compound: COc1ccc(CCn2c(C)cc(C(=O)CSc3nnnn3C)c2C)cc1
[reply] 99.5

[ask] Report measured viability; entry is COc1ccccc1-c1nc2n(n1)C(c1cccs1)C(C(=O)Nc1cccnc1)=C(C)N2 (stereo unspecified)
[reply] 83.5

[ask] Output viability of Cc1onc(-c2ccccc2)c1C(N)=O
[reply] 91

[ask] Identify measured viability associated with CCOC(=O)C1=C(C)Nc2nnnn2C1c1c[nH]c2ccccc12 (stereo unspecified)
[reply] 110

[ask] Tell me viability reported for Cn1cccc1-c1cc(C(=O)O)[nH]n1
[reply] 129

[ask] // Input: COc1ccc2c(c1)Sc1ccccc1N2CCN(C)C . Output its viability only.
[reply] 88.5

[ask] Give a short answer stating reported viability for O=S(=O)(c1ccc2c(c1)nc1n2CCC1)N1CCOCC1 .
[reply] 102

* * *

Assay Explanation: HUVEC growth inhibition – cell-based, human, primary screen (AID 575);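 note: 100% = median of untreated cell wells with 0.1% DMSO on each plate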
Run Parameters: HUVEC proliferation, CellTiter-Glo luminescence, 72 h; at 10 µM; stronger effect = lower value
Can you tell me viability for the items I'm about to list?
Kindly provide the numeric value in % only, without the unit symbol.

[ask] Specify measured viability for O=C(CSc1nnc(CNC(=O)c2cccs2)o1)Nc1cccc(C(F)(F)F)c1 .
[reply] 82.7

[ask] Give viability for the following compound: CCOC(=O)C1CCCN(C(=O)c2cc3c(=O)n4cccc(C)c4nc3n2C)C1 (stereo unspecified)
[reply] 108

[ask] Fill in reported viability for this entry: CC(=O)Nc1ccc(Oc2ccc3nc(C)[nH]c3c2)cc1
[reply] 113

[ask] State, in one line, measured viability of O=S(=O)(NC1=NCCC1)c1cccs1
[reply] 114

[ask] Supply measured viability of CC(=O)Oc1ccc(CCC(C)OC(C)=O)cc1 (stereo unspecified) in your reply.
[reply] 93.2

[ask] Answer with the recorded viability of CCOC(=O)N1CCN(C(=O)C2CC(=O)N(Cc3ccc(OC)cc3)C2)CC1 (stereo unspecified) only.
[reply] 112

[ask] Quickly give me recorded viability for Cc1cc(C)nc(Sc2ccc3nnc(C(F)(F)C(F)(F)C(F)(F)F)n3n2)n1
[reply] 99.6

[ask] Find the measured viability of CCOC(=O)c1sc(NC(=O)C2CC=CCC2C(=O)O)nc1C (stereo unspecified) and report it.
[reply] 100

[ask] Please report viability for the following compound: CCOC(=O)c1oc2cccc(OC(C)=O)c2c1C
[reply] 89.9

[ask] State, in one line, measured viability of CCOc1ccccc1C(=O)NC(C)c1ccc2c(c1)OCO2 (stereo unspecified)
[reply] 67.6

[ask] Using known records, supply viability for CCc1nnc(NC(=O)c2cc3ccccc3oc2=O)s1
[reply] 118

* * *

Assay Explanation: growth suppression of beta-catenin knockout HCT116, pilot screen, human colon tumor cells (AID 823);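 note: 0% = wells killed by 20 µM Hyamine and 100% = untreated DMSO cell wells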
Run Parameters: CellTiter-Glo, 60 h, at 10 µM, stronger effect = lower value
Results filed as inconclusive are left out.
Kindly state viability for each of the entries shown.
Use % as the unit, but write only the number.

[ask] Name the recorded viability of the molecule listed here: Nc1cccc(C(=O)Nc2ccc(N)cc2Cl)c1
[reply] 103

[ask] State its viability for this molecule: O=C(Cn1cc2c(n1)CCCC2)NCCCN1CCN(c2ccccc2F)CC1
[reply] 89.5

[ask] For the molecule CCN(CC)CCN1C(=O)c2ccccc2NC1c1cccc(F)c1 (stereo unspecified) , give its reported viability.
[reply] 84.4

[ask] Read the entry CC(=O)N1CCN(c2ccc(NCc3ccc(F)cc3)cc2)CC1 and write its reported viability.
[reply] 90.1

[ask] Tell me measured viability for O=C(O)c1ccc(N2CCCCCC2)c(N2C(=O)c3ccccc3C2=O)c1 please.
[reply] 108

[ask] Query viability for O=C(CSc1nnc(-c2cccs2)o1)N1CCCCC1
[reply] 104

[ask] Give me measured viability, please, for this molecule: O=c1[nH]n(-c2ncnc3c2cnn3-c2ccccc2)c(=O)c2ccccc12
[reply] 101

[ask] Give viability for the following molecule: Cc1ccc(SCCNC(=O)C(CO)(CO)CO)cc1
[reply] 101

[ask] Please report viability for the following molecule: Cc1cccc(-n2ncc3c(N4CC(C)CC(C)C4)ncnc32)c1 (stereo unspecified)
[reply] 59.9

[ask] // fetch viability given entry CCOC(=O)CN1CC23C=CC(O2)C(C(=O)NCc2ccc(C)cc2)C3C1=O (stereo unspecified)
[reply] 99.5

[ask] Given the molecule O=C(Nc1ccc(Cl)cn1)c1cccc(F)c1 , write its reported viability.
[reply] 37

* * *

Consider the following molecules; for each one, report its viability.
Assay Explanation: reversal of MRP1-mediated doxorubicin resistance, pilot screen, H69AR cells, doxorubicin co-treatment (AID 601)
Run Parameters: H69AR cells, CellTiter-Glo, 72 h; compound alone cytotoxicity; at 10 µM
Write the quantity with the unit trailing the number.

[ask] Check the records and state viability for Cc1ccc(-c2nc(CS(=O)CC(=O)NCCN(CC(C)C)CC(C)C)c(C)o2)cc1 (centres undefined)
[reply] 103%

[ask] Write down viability measured for item Nc1nc(-n2cnnc2)nn1-c1ccccc1
[reply] 101%

[ask] Please report the measured viability for CCOC(=O)NC1(NCc2ccccc2)Oc2ccccc2O1
[reply] 36.8%

[ask] Tell us which viability value is on record for CCc1ccc(CNCc2cccnc2)cc1
[reply] 92.4%

[ask] Read off the recorded viability for COc1cccc(OC)c1C(=O)n1nc(C)cc1C
[reply] 98.8%

[ask] Write down viability measured for item CCc1nnc(NC(=O)c2ccc(S(=O)(=O)NC3CCCCC3)cc2)s1
[reply] 80.1%

[ask] Hello, please tell me recorded viability for this one: c1cncc(-c2nnc3n2N=C(c2cccs2)CS3)c1
[reply] 92.5%

[ask] Specify measured viability for COCCn1nnnc1C(c1cccs1)N1CCN(c2cc(C)ccc2C)CC1 (centres undefined) .
[reply] 92.5%

[ask] Give reported viability value for CC(C)N(C=O)C1(C(=O)NC2CCCCC2)CCCCC1
[reply] 112%

[ask] Given the molecule CCOC(=O)CSc1nnc([C@H](CC(C)C)NC(=O)OC(C)(C)C)o1 , write its reported viability.
[reply] 94.6%

[ask] Please give the documented viability of Cc1sc2c(c1C)CN(C1CC(C)(C)NC(C)(C)C1)CN2C(=O)c1ccco1
[reply] 83.7%

[ask] Recall and state the measured viability for CCOC(=O)C1=C(C)N=C2SCCC(=O)N2C1c1cc(Br)ccc1OC (centres undefined) .
[reply] 92%

[ask] Provide only the value of recorded viability for CCCn1c(O)c(CN2CCCC(C)C2)c(C)c(C#N)c1=O (centres undefined)
[reply] 107%

[ask] Tell me its viability given CN(C#N)c1nc(N2CCOCC2)nc(N2CCOCC2)n1 as the entry.
[reply] 92.8%

[ask] Give viability for the following molecule: CC1Cc2ccccc2N1NC(=O)c1ccc(Cl)c(S(N)(=O)=O)c1 (centres undefined)
[reply] 91.4%

[ask] Check the records and state viability for COc1ccccc1N1C(=O)c2ccccc2NC1c1ccncc1 (centres undefined)
[reply] 104%

[ask] Indicate its recorded viability; the molecule in question is COc1cc(OC)cc(C(=O)N2c3ccc(F)cc3CCC2C)c1 (centres undefined)
[reply] 97.5%

[ask] Give viability for the following molecule: OCCOCCN1CCN(C(c2ccccc2)c2ccc(Cl)cc2)CC1 (centres undefined)
[reply] 98.3%

[ask] Report viability for c1ccc(-c2ccccc2OCCn2cncn2)cc1
[reply] 99.8%

[ask] Provide one value: measured viability of Cc1ccc(S(=O)(=O)N(CC(=O)N2CCOCC2)CC(=O)N2CCOCC2)cc1
[reply] 107%

[ask] Hello, please tell me recorded viability for this one: CCOC(=O)c1sc(NC(=O)C2CC=CCC2C(=O)O)nc1C (centres undefined)
[reply] 98.1%

[ask] For Cc1ccc(CSC2=NCCN2C(=O)C2CC2)cc1 , write its viability.
[reply] 97%

[ask] Provide viability value for the following molecule: CCCCc1c(O)nc(SCCN(C)C)n(-c2ccccc2)c1=O
[reply] 102%

[ask] Consider the molecule O=S(=O)(c1cccs1)N1CCN(C/C=C/c2ccccc2)CC1 . State its measured viability.
[reply] 82.9%

* * *

System Under Test: Receptor tyrosine-protein kinase erbB-2 (Homo sapiens)
Assay Explanation: reducers of endogenous Her2 protein level, primary screen, SKBR3 breast tumor cells, AlphaScreen, ATP viability (AID 461);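 note: lower value means less Her2 protein in the cells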
Run Parameters: 18-24 h, at 10 µM, stronger effect = lower value
Assign Her2 level to each entry below.
Note: unit % is implicit; provide only the numeric part.

[ask] Would you please give the reported Her2 level of COc1ccccc1N1CCN(C(=O)C(Cc2ccccc2)NC(=O)C2CCCCC2)CC1 (stereo not drawn) with Receptor tyrosine-protein kinase erbB-2 (Homo sapiens)?
[reply] 85.5

[ask] Give reported Her2 level for S=c1[nH]nc(-c2cccc(Br)c2)o1 (Receptor tyrosine-protein kinase erbB-2 (Homo sapiens))
[reply] 130

[ask] Using Receptor tyrosine-protein kinase erbB-2 (Homo sapiens) as the test system, report measured Her2 level of CCC1(C)Cc2c(C#N)c(N)n(-c3ccccc3)c(=O)c2CO1 (stereo not drawn) .
[reply] 106

[ask] Specify Her2 level for Cc1cc(C)cc(OCCCC(=O)O)c1 , system Receptor tyrosine-protein kinase erbB-2 (Homo sapiens).
[reply] 97

[ask] Report Her2 level on Receptor tyrosine-protein kinase erbB-2 (Homo sapiens) for this entry: CCOC(=O)CSc1nnc([C@H](CC(C)C)NC(=O)OC(C)(C)C)o1
[reply] 106

[ask] Recall the reported Her2 level of CN(C=O)CP(=O)(O)CCN1CCCC1=O when tested on Receptor tyrosine-protein kinase erbB-2 (Homo sapiens).
[reply] 121

[ask] For Receptor tyrosine-protein kinase erbB-2 (Homo sapiens), give Her2 level of the listed compound: C[C@@H]1C[C@H]2[C@@H]3C[C@H](F)C4=CC(=O)C=C[C@]4(C)[C@@]3(F)[C@@H](O)C[C@]2(C)[C@@]1(O)C(=O)CO
[reply] 118

[ask] State Her2 level (Receptor tyrosine-protein kinase erbB-2 (Homo sapiens)) of COc1ccc2c(c1)cc(C(=O)O)n2C .
[reply] 73

[ask] Specify Her2 level for O=C(CSc1ncccn1)c1ccccc1Br , system Receptor tyrosine-protein kinase erbB-2 (Homo sapiens).
[reply] 93.5

[ask] Please indicate recorded Her2 level of CCSc1cc(C2C(C(=O)OC)=C(C)NC3=C2C(=O)CCC3)c(C)o1 (stereo not drawn) measured with Receptor tyrosine-protein kinase erbB-2 (Homo sapiens).
[reply] 90

[ask] Fill: Her2 level (Receptor tyrosine-protein kinase erbB-2 (Homo sapiens)) for this compound CCOC(=O)C1=C(c2ccccc2)NC(=O)NC1c1ccc(N(C)C)cc1 (stereo not drawn)
[reply] 87

[ask] State recorded Her2 level with Receptor tyrosine-protein kinase erbB-2 (Homo sapiens), entry Cc1nc2sc(C#N)c(N)c2c2c1CCCC2 , no comment.
[reply] 78.5

[ask] Report the value of Her2 level obtained on Receptor tyrosine-protein kinase erbB-2 (Homo sapiens) for O=C(N1CCN(Cc2ccccc2)CC1)C12CC3CC(CC(C3)C1)C2 .
[reply] 98

[ask] Please tell me the measured Her2 level for CC1CCCC(NC(=O)CSc2ncccc2C(=O)O)C1C (stereo not drawn) ; system: Receptor tyrosine-protein kinase erbB-2 (Homo sapiens).
[reply] 79

[ask] Report value only: Her2 level, Receptor tyrosine-protein kinase erbB-2 (Homo sapiens), COc1ccc(C(=O)OC(COc2ccccc2)Cn2ccnc2)cc1 (stereo not drawn)
[reply] 97

[ask] Param request: Her2 level | system Receptor tyrosine-protein kinase erbB-2 (Homo sapiens) | item CC(=O)c1cc(F)c(N2CCN(C(=O)Cc3ccccc3)CC2)cc1C
[reply] 97

[ask] State the measured Her2 level (Receptor tyrosine-protein kinase erbB-2 (Homo sapiens)) of CCOC(=O)c1sc(=NC(=O)c2ccc(OC)c(OC)c2)n(C)c1C
[reply] 84

[ask] Determine reported Her2 level for CC1CCCCC1NC(=O)c1nn(C)c(=O)c2ccccc12 (stereo not drawn) ; test system: Receptor tyrosine-protein kinase erbB-2 (Homo sapiens).
[reply] 104

[ask] Look up and report Her2 level, with Receptor tyrosine-protein kinase erbB-2 (Homo sapiens) as system, for CC(C)CNS(=O)(=O)c1ccc(OCC(=O)Nc2ccc3c(c2)OCO3)c(Cl)c1
[reply] 66

[ask] Tell me its Her2 level on Receptor tyrosine-protein kinase erbB-2 (Homo sapiens): COc1cccc(-c2cc(C(F)(F)F)n3ncc(C(=O)O)c3n2)c1
[reply] 87.5

[ask] Please indicate recorded Her2 level of CCOC(=O)C(NC(=O)Nc1ccccc1)(OCC)C(F)(F)F (stereo not drawn) measured with Receptor tyrosine-protein kinase erbB-2 (Homo sapiens).
[reply] 98

[ask] Give the observed Her2 level of COc1ccc(CCNC(=O)C2CC(=O)N(c3ccccc3)C2)cc1OC (stereo not drawn) for Receptor tyrosine-protein kinase erbB-2 (Homo sapiens).
[reply] 99.5

[ask] GET Her2 level | system: Receptor tyrosine-protein kinase erbB-2 (Homo sapiens) | item: COc1ncnc2c1N=C1CC(C)(C)CC(N)=C1S2
[reply] 86
